- assay_explanation: qHTS assay to identify small molecule agonists of the NFkB signaling pathway - cell viability counter screen (AID 1159515); note: nearly all actives have a fitted effect of over 55% in size
- experimental_setup: NFkB-bla ME-180 viability, CellTiter-Glo luminescence, 5 h; series mostly up to 61 µM
Records with an inconclusive call do not appear. Calls of active or inactive are those of the source. Calls come from the whole dose curve.
Outcomes: active, inactive

molecule | discrete_label
CCCCC/C=C\C/C=C\CCCCCCCC(=O)O | inactive
Nc1cc(Cl)c(O)c(Cl)c1 | inactive
COc1ccc2cc1Oc1ccc(cc1)C[C@H]1c3c(cc4c(c3Oc3cc5c(cc3OC)CCN(C)[C@@H]5C2)OCO4)CCN1C | inactive
Cc1cccc(C(=O)O)c1O | inactive
C[C@@H](O)[C@H](N)C(=O)O | inactive
CN1CCC[C@@H]1CCO[C@](C)(c1ccccc1)c1ccc(Cl)cc1 | active
Cc1c(N)cccc1C(F)(F)F | inactive
C#C[C@]1(OC(C)=O)CC[C@H]2[C@@H]3CCC4=C/C(=N/O)CC[C@@H]4[C@H]3CC[C@@]21CC | inactive
CC1(C)CCC[C@]2(C)[C@H]3CC(=O)O[C@]3(C)CC[C@@H]12 | inactive
CCC(C)n1ncn(-c2ccc(N3CCN(c4ccc(OC[C@H]5CO[C@](Cn6cncn6)(c6ccc(Cl)cc6Cl)O5)cc4)CC3)cc2)c1=O (stereo partly specified) | inactive
O[C@@H]([C@H](O)[C@H](O)CBr)[C@H](O)CBr | inactive

* * *

- assay_explanation: qHTS assay for identifying genotoxic compounds that show differential cytotoxicity against isogenic chicken DT40 cell lines with known DNA damage response pathways - wild type cell line (AID 743012); note: nearly all actives have a fitted effect of over 60% in size
- experimental_setup: DT40 wild type chicken cells viability, CellTiter-Glo, 40 h; series mostly up to 68.4 µM
Inconclusive results are not listed. Calls of active or inactive are those of the source. Calls follow the shape of the dose curve; as a rule, active = well fitted cell-killing curve with a large enough effect in the repeat runs; inconclusive = weak or mixed curves, or effect the other way; inactive = no such curve, though single readings can be large or run the other way.
Outcomes: active, inactive

molecule | discrete_label
CCCCCc1ccc(Cl)cc1 | inactive
CC1(C)CCC[C@]2(C)[C@H]3CCO[C@]3(C)CC[C@@H]12 | inactive
CN1CCCCC1CCN1c2ccccc2Sc2ccc(S(C)=O)cc21 (configuration not stated) | active
C=Cc1cccc(C)c1 | inactive
OC/C=C/CO | inactive
CCOC(=O)Cn1cccc1-c1nc(-c2ccc(OC)cc2)c(-c2ccc(OC)cc2)s1 | inactive
C[C@@H](O)[C@H](N)C(=O)O | inactive

* * *

- assay_explanation: qHTS assay for identifying genotoxic compounds that show differential cytotoxicity against isogenic chicken DT40 cell lines with known DNA damage response pathways - wild type cell line (AID 743012); note: nearly all actives have a fitted effect of over 60% in size
- experimental_setup: DT40 wild type chicken cells viability, CellTiter-Glo, 40 h; series mostly up to 68.4 µM
Results filed as inconclusive are left out. Activity calls are given as the source filed them. Calls come from the whole dose curve; as a rule, active = well fitted cell-killing curve with a large enough effect in the repeat runs; inconclusive = weak or mixed curves, or effect the other way; inactive = no such curve, though single readings can be large or run the other way.
Outcomes: active, inactive

compound | discrete_label
Cc1c(C)c2c(c(C)c1O)CC[C@@](C)(CCC[C@H](C)CCC[C@H](C)CCCC(C)C)O2 | inactive
Cc1cc(C(C)(C)C)cc(C)c1CC1=NCCN1 | inactive
OCC(F)(F)F | inactive
O=C1NC(=O)[C@@H]2CC=CC[C@H]12 | active
O=C(/C=C/c1ccccc1)OC/C=C/c1ccccc1 | active
Cc1cc(-n2nc3ccc(Cl)cc3n2)c(O)c(C(C)(C)C)c1 | inactive
CC(=O)c1ccc(C(C)=O)cc1 | inactive
Cc1ccc(C(C)C)cc2c(C)ccc1-2 | inactive
CCCC(=O)OC(C)(C)Cc1ccccc1 | inactive
C#C[C@]1(OC(C)=O)CC[C@H]2[C@@H]3CCC4=C/C(=N/O)CC[C@@H]4[C@H]3CC[C@@]21CC | active
CCCCC(CC)COC(=O)CCCCC(=O)OCc1ccccc1 (configuration not stated) | inactive
CN1CCN2c3ccccc3Cc3ccccc3C2C1 (configuration not stated) | active
